Experiment: self-splicing fitness, log relative to wild type (ln ratio); higher = more splicing; Tetrahymena group I intron in knt gene, E. coli kanamycin selection, DiMSum; sequences stand for … in CUCUCU…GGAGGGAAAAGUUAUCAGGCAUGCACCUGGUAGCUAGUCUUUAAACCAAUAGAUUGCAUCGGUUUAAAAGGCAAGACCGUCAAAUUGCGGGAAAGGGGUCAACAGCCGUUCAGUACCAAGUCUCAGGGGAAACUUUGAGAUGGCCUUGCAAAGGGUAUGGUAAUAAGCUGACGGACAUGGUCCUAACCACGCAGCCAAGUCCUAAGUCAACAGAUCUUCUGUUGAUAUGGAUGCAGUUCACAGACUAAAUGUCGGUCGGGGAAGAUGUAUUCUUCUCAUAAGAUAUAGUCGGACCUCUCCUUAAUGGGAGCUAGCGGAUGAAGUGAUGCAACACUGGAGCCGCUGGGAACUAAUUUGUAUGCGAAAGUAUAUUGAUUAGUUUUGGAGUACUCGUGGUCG;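 note: selection with 25 µg/mL kanamycin versus none on LB agar overnight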
Conditions: 37 °C
Rule: Satisfied for self-splicing fitness (ln) not less than -0.2, Not satisfied for anything less.

CCAGAGCAAUAUUACGACUA :: Not satisfied
GCCGAGCAAUAUUACGGCAA :: Not satisfied
AACUAGCAAUAUUACGGCUU :: Satisfied
UCCUAGCAAUAUUACGUAGC :: Not satisfied
CUAAAGCAAUAUUACGUGGC :: Not satisfied
UCACAGCAAUAUUACGGACG :: Not satisfied
UUUGAGCAAUAUUACGAUUG :: Not satisfied
AUUGAGCAAUAUUACGGUCU :: Not satisfied

-- ask Check this sequence for self-splicing fitness (ln) at or above -0.2: UUGAAGCAAUAUUACGUCUG
-- reply Satisfied

-- ask Could you do the same for UUAAAGCAAUAUUACGAUUA , please?
-- reply Satisfied

-- ask Could you do the same for GCAAAGCAAUAUUACGAAGA , please?
-- reply Not satisfied

----------
Experiment: self-splicing fitness, log relative to wild type (ln ratio); higher = more splicing; Tetrahymena group I intron in knt gene, E. coli kanamycin selection, DiMSum; sequences stand for … in CUCUCU…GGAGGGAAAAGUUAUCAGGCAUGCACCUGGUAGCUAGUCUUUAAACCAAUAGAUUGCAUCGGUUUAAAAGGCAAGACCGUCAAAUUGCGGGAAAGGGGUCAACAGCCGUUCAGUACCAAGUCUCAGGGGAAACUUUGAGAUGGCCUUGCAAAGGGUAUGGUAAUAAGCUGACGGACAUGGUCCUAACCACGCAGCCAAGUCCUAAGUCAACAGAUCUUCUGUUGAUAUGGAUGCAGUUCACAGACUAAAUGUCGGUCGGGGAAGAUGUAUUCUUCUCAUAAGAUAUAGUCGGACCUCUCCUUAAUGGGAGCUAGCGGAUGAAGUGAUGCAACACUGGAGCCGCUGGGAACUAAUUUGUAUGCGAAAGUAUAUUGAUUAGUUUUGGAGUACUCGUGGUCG
Details: 30 °C
For each of the sequences below, state its self-splicing fitness (ln).
One number for each entry.

ACGGAGCAAUAUUACGUGAG :: -3.06

Fill in self-splicing fitness (ln) for each of the 8 sequences listed.
1. CUCGAGCAAUAUUACGAUGG
2. GGUAAGCAAUAUUACGCGGC
3. GUUCAGCAAUAUUACGGGAG
4. ACUCAGCAAUAUUACGAACU
5. CGCAAGCAAUAUUACGGGAG
6. GGAGAGCAAUAUUACGCUCA
7. GACUAGCAAUAUUACGCCAG
8. GGUCAGCAAUAUUACGACGU

-- reply
-1.83
-2.84
-0.317
-0.166
-2.73
-2.77
-1.31
0.0937

Fill in self-splicing fitness (ln) for each of the 7 sequences listed.
1. CGACAGCAAUAUUACGUUUU
2. UCCAAGCAAUAUUACGCUCA
3. AACCAGCAAUAUUACGGGGC
4. ACAAAGCAAUAUUACGCACU
5. UCCUAGCAAUAUUACGUUUA
6. GGAUAGCAAUAUUACGCCGA
7. CAUAAGCAAUAUUACGGCGU

-- reply
1: -3.62; 2: -1.03; 3: -3.59; 4: -0.0924; 5: -2.15; 6: -0.933; 7: -2.7
